Assignment: determine reported Kb for the given molecules.
Biological target: Melanocortin receptor 3 (Mus musculus)
Sequence (P33033 whole entry): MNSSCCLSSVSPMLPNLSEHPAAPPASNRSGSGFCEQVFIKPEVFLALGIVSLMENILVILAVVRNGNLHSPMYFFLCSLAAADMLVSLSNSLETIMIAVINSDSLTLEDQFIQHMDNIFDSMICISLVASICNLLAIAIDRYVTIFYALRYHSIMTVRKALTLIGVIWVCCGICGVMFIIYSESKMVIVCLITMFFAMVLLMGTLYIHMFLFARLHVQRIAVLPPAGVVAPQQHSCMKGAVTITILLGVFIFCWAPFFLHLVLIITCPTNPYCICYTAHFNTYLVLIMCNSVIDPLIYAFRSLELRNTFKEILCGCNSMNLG
Assay: Antagonist activity at mouse melanocortin receptor 3 expressed in HEK293 cells assessed as inhibition of NDP-MSH-induced cAMP accumulation incubated for 2 hrs by cAMP Alpha-screen assay based Schild analysis
Format: functional, cell-based
Conditions: read-out: pA2 (converted)
Square brackets hold non-standard residues; d marks the D form. Peptide text beside a SMILES is read from it. dPhe(4-I) = N[C@H](Cc1ccc(I)cc1)C(=O)O; 2Nal = N[C@@H](Cc1ccc2ccccc2c1)C(=O)O; d2Nal = N[C@H](Cc1ccc2ccccc2c1)C(=O)O

Example cases with answers are listed next.
molecule	Kb
CC(=O)N[C@H](Cc1ccc(I)cc1)C(=O)N[C@H](Cc1ccc2ccccc2c1)C(=O)N[C@@H](Cc1ccc2ccccc2c1)C(=O)N[C@@H](CCCNC(=N)N)C(N)=O (Ac-[dPhe(4-I)][d2Nal][2Nal]R-NH2)	> 3.16 µM
CC(=O)N[C@H](Cc1ccc(I)cc1)C(=O)N[C@H](Cc1ccc2ccccc2c1)C(=O)N[C@H](Cc1ccc(I)cc1)C(=O)N[C@H](CCCCN)C(N)=O	> 3.16 µM
CC(=O)N[C@H](Cc1ccc(I)cc1)C(=O)N[C@@H](CCCNC(=N)N)C(=O)N[C@@H](Cc1ccc2ccccc2c1)C(=O)N[C@H](Cc1ccc2ccccc2c1)C(N)=O (Ac-[dPhe(4-I)]R[2Nal][d2Nal]-NH2)	> 3.16 µM
CC(=O)N[C@H](Cc1ccc2ccccc2c1)C(=O)N[C@@H](CCCNC(=N)N)C(=O)N[C@H](Cc1ccc2ccccc2c1)C(=O)N[C@H](Cc1ccc2ccccc2c1)C(N)=O (Ac-[d2Nal]R[d2Nal][d2Nal]-NH2)	2 µM

Shift focus to the following entry.
// molecule CC(=O)N[C@H](Cc1ccc2ccccc2c1)C(=O)N[C@H](Cc1ccc2ccccc2c1)C(=O)N[C@@H](Cc1c[nH]c2ccccc12)C(=O)N[C@@H](CCCNC(=N)N)C(N)=O (Ac-[d2Nal][d2Nal]WR-NH2) , assay Melanocortin receptor 3 (Mus musculus), Kb value: > 3.16 µM
